system.under.test: SSTR4 (Homo sapiens, UniProt P31391)
Construct: host or cells: CHO-K1
Sequence (P31391 whole entry): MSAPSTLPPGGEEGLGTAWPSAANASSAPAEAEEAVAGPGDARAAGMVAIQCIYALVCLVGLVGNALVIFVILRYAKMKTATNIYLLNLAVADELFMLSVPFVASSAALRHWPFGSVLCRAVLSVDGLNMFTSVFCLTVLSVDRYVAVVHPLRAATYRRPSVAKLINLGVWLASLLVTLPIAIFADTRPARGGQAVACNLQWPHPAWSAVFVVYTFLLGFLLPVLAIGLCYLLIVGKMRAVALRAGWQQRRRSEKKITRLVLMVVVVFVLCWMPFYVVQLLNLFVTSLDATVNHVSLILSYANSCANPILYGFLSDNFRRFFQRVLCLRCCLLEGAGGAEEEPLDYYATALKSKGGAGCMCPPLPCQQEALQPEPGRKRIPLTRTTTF
assay.summary: SSTR4 I-125 somatostatin competition binding assay (CHO-K1 membranes)
cond: competition with I-125 somatostatin, membranes from CHO-K1 overexpressing SSTR4; read-out: SSTR4 Binding pIC50 (converted)
Experimental: SSTR4 I-125 Somatostatin Competition Binding Assay Membranes from CHO-K1 cells overexpressing SSTR4 are purchased from Perkin Elmer (catalog number ES-524-M400UA). Test compounds are suspended in DMSO and then diluted in assay buffer (25 mM HEPES pH 7.4, 10 mM MgCl2, 1 mM CaCl2), 0.5% BSA) plus 0.2 nM I-125 labeled somatostatin (Perkin Elmer catalog number NEX389). […] The filters are then read in a MicroBeta scintillation counter. […]
measurement.kind: IC50 (nM)
State the answer as a number, implicitly in nM.

Solved cases (6 shown):
Hello, please tell me recorded IC50 for this one: CN1CCC[C@@H]1CC(=O)NC(C)(C)c1nccc2occc12
794

Hello, please tell me recorded IC50 for this one: Cc1cccnc1OCC1(NC(=O)C(C)C2CCCN2C)CC1 (stereo not drawn)
251

Hello, please tell me recorded IC50 for this one: O=C(CCN1CCC1)N[C@H](c1ccccc1)C(F)F (single isomer, unassigned)
63.1

Hello, please tell me recorded IC50 for this one: CC(C)(NC(=O)CCN1CCC1)c1cccc(Cl)c1
39.8

Hello, please tell me recorded IC50 for this one: C[C@@H](CN1CCC1)C(=O)NC(C)(C)c1ccc(Cl)cc1 (single isomer, unassigned)
39.8

Hello, please tell me recorded IC50 for this one: Cc1ccc(C(CF)NC(=O)CCN2CCC2)cc1 (stereo not drawn)
200

Continuing:
Hello, please tell me recorded IC50 for this one: O=C(CCN1CCC1)N[C@H](c1cccc(Cl)c1)C(F)F
20

Hello, please tell me recorded IC50 for this one: CN1CCC[C@H]1CC(=O)NC(C)(C)c1nccc2occc12
316

Hello, please tell me recorded IC50 for this one: CN1CCCCC1CC(=O)NC(C)(C)c1nccc2ccccc12 (stereo not drawn)
25.1
